These entries and their values trace back to ChEMBL document CHEMBL3813691.

# RUN DESCRIPTION: Cytotoxicity against human HL60 cells assessed as reduction in cell survival after 46 hrs by MTT assay
# Type: functional, cell-based
# REPORTED CONDITIONS: HL-60, 46 h
ASSAY METRIC: log10(IC50) (log10 of the value in µM)

1) COc1cccc(C2C3C(=NN2C)c2ccccc2OC3c2ccccc2)c1 (configuration not stated) : 1.85
2) CN1N=C2c3ccccc3OC(c3ccccc3)C2C1c1ccccc1 (configuration not stated) : 1.73
3) O=C1c2ccccc2OC(c2ccccc2)C12N=NCC2c1ccc([N+](=O)[O-])cc1 (configuration not stated) : 1.74
4) N#Cc1cccc(C2CN=NC23C(=O)c2ccccc2OC3c2ccccc2)c1 (configuration not stated) : 1.88
5) CN1N=C2c3cc(O)ccc3OC(c3ccccc3)C2C1c1ccccc1 (configuration not stated) : 1.58
6) CN1N=C2c3ccccc3OC(c3ccccc3)C2C1c1cccc(C#N)c1 (configuration not stated) : 1.82
7) CN1N=C2c3ccccc3OC(c3ccccc3)C2C1c1ccc(C#N)cc1 (configuration not stated) : 1.30
8) Cc1ccc(C2C3C(=NN2C)c2ccccc2OC3c2ccccc2)cc1 (configuration not stated) : 1.44
9) Oc1ccc(C2NN=C3c4ccccc4OC(c4ccccc4)C32)cc1 (configuration not stated) : 1.62
10) Oc1ccc2c(c1)C1=NNC(c3ccccc3)C1C(c1ccccc1)O2 (configuration not stated) : 1.44
11) COc1ccc(C2C3C(=NN2C)c2ccccc2OC3c2ccccc2)cc1 (configuration not stated) : 2.73
12) CN1N=C2c3ccccc3OC(c3ccccc3)C2C1c1ccc(O)cc1 (configuration not stated) : 1.68
